- TARGET_SYSTEM: Growth factor receptor-bound protein 2 (Homo sapiens)
- TEST_PROTOCOL: Inhibition of Growth factor receptor bound protein 2 SH2 domain binding in plasmon resonance assay
READOUT_LABEL: IC50 (nM)

I: NC(=O)C[C@H](NC(=O)C1(NC(=O)[C@H](Cc2ccc(CC(=O)O)cc2)NC(=O)C(=O)O)CCCCC1)C(=O)NCCCc1cccc2ccccc12
II: NC(=O)C[C@H](NC(=O)C1(NC(=O)[C@H](Cc2ccc(OCC(=O)O)cc2)NC(=O)C(=O)O)CCCCC1)C(=O)NCCCc1cccc2ccccc12
III: NC(=O)C[C@H](NC(=O)C1(NC(=O)[C@H](Cc2ccc(C(F)(F)C(=O)O)cc2)NC(=O)C(=O)O)CCCCC1)C(=O)NCCCc1cccc2ccccc12
Inquiry: Ranking request: IC50, max to min, items above. Show the ranking through the labels, in the order asked for.
Reply text: II, III, I
